Entries and their EC50
Target: Protein kinase C delta type (Homo sapiens, UniProt Q05655)
Sequence (Q05655 whole entry): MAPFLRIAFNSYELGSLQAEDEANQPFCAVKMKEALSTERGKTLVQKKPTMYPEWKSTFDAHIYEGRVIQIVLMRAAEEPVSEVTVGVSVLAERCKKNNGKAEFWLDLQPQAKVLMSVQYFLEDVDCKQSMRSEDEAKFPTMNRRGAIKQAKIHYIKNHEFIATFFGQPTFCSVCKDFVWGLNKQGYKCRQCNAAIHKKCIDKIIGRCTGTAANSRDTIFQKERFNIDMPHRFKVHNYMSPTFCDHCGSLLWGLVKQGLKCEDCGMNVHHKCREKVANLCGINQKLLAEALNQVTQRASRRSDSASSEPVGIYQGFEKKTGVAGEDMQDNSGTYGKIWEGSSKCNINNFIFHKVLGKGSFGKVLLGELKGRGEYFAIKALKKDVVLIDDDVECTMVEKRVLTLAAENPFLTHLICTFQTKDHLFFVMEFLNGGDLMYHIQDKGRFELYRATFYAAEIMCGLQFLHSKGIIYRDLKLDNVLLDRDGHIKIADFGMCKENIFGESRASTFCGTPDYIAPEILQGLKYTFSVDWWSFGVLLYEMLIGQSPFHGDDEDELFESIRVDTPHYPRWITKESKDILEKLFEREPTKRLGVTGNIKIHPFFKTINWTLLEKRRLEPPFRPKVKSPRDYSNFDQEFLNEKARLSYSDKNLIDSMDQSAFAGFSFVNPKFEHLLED
Assay: Activation of PKCdelta (unknown origin) using phosphatidylserine […]
Details: read-out: EC50
Your answer should be a plain number; it is taken to be in nM.

Some solved cases for reference:
CO/N=C(\C(=O)O[C@H]1C(C)=C[C@]23C(=O)[C@@H](C=C(CO)[C@@H](O)[C@]12O)[C@H]1[C@@H](C[C@H]3C)C1(C)C)c1ccccc1 ... 10.6
CC1=C[C@]23C(=O)[C@@H](C=C(CO)[C@@H](O)[C@]2(O)[C@H]1OC(=O)C1(C)CCCCC1)[C@H]1[C@@H](C[C@H]3C)C1(C)C ... 2.9
CCCCCCCCCC(=O)O[C@H]1C(C)=C[C@]23C(=O)[C@@H](C=C(CO)[C@@H](O)[C@]12O)[C@H]1[C@@H](C[C@H]3C)C1(C)C ... 5.3
CCC(CC)C(=O)O[C@H]1C(C)=C[C@]23C(=O)[C@@H](C=C(CO)[C@@H](O)[C@]12O)[C@H]1[C@@H](C[C@H]3C)C1(C)C ... 4.5
CC1=C[C@]23C(=O)[C@@H](C=C(CO)[C@@H](O)[C@]2(O)[C@H]1OC(=O)C(C)=C(C)C)[C@H]1[C@@H](C[C@H]3C)C1(C)C ... 5.3

Input C/C=C(/C(=O)O[C@H]1C(C)=C[C@]23C(=O)[C@@H](C=C(CO)[C@@H](O)[C@]12O)[C@H]1[C@@H](C[C@H]3C)C1(C)C)c1ccccc1 , output reported EC50. 5.2

Input CCCCCCCCCCCCCCCC(=O)O[C@H]1C(C)=C[C@]23C(=O)[C@@H](C=C(CO)[C@@H](O)[C@]12O)[C@H]1[C@@H](C[C@H]3C)C1(C)C , output reported EC50. 4.7

Input C/C=C(/C)C(=O)O[C@H]1C(C)=C[C@]23C(=O)[C@@H](C=C(CO)[C@@H](O)[C@]12O)[C@H]1[C@@H](C[C@H]3C)C1(C)C [INGENOL MEBUTATE] , output reported EC50. 4.1
